- Test system: MS2 coat protein
- testDetails: apparent Kd, MS2 coat protein; higher = weaker binding; RNA-MaP array
- protocolConditions: designed as: ON switch for theophylline; no ligand
readoutLabel: apparent Kd
Reply with the number and its unit after it.

[
  {
    "sequenceEntry": "GCGGUCCACUUGGAUACCAGCAGAUUAAUAAACAUGAGGAUCACCCAUGUAAGCGCCUUGUGCCCUUGGCAGCCAGGGUGGUCAG",
    "result": "83.8 nM"
  },
  {
    "sequenceEntry": "GGCACACAUGAGGAUCACCCAUGUGGCGAUACCAGUUGAUGGUAAAACCCUUGGCAGCGCCAGUCACAUGCAGAUAGUUACUGAA",
    "result": "13.9 nM"
  },
  {
    "sequenceEntry": "AGGAGACAUGAGGAUCACCCAUGUCCAGAUACCAGAAUGUCUUUGUUCCCUUGGCAGCUGUGGAAAUCUGACCUGCCUCGGUCUG",
    "result": "14.2 nM"
  },
  {
    "sequenceEntry": "AGGGAACAUGAGGAUCACCCAUGUGCCGAUACCAGUGAUUUUCAGCACCCUUGGCAGCGGAACCUUUGUUAUAUUAUUCUUAGGG",
    "result": "36.7 nM"
  },
  {
    "sequenceEntry": "UCCACACAUGAGGAUCACCCAUGUUGAGAUACCAGUAAACCAAAAUACCCUUGGCAGCUCCUACGCUCUUACAGCGGGAAUAUCC",
    "result": "15.8 nM"
  },
  {
    "sequenceEntry": "GGUUAACAUGAGGAUCACCCAUGUCUUGAUACCAGUCGUUAUCUUGACCCUUGGCAGCAAGAUGACCGUUAGCAGCCGUCUUCUC",
    "result": "13.2 nM"
  }
]

Continue with the sequence presented below.
The reported apparent Kd of the sequence GGCUGACAUGAGGAUCACCCAUGUAGUGAUACCAGUAAGAGAAUAUACCCUUGGCAGCACAGGUAACAACUCGUCUCCAAAGUAA was 42.7 nM

###

- Tested on: MS2 coat protein
- testDetails: apparent Kd, MS2 coat protein; higher = weaker binding; RNA-MaP array
- protocolConditions: designed as: OFF switch for flavin mononucleotide; no ligand
readoutLabel: apparent Kd (nM)
Form entry: value (nM) — number only.

[
  {
    "sequenceEntry": "AUUUUGGGAGGAUAUACAUGAGGAUCACCCAUGUUUUAGAACGUAAGAGAAUCCGGAGGUAGAAGGCCCUUCUG",
    "resultNumber": 180
  },
  {
    "sequenceEntry": "CACAAGUCGUAGGAUAUCACCACAAAUAGCUGCUGAGAAGGACGGACAUGAGGAUCACCCAUGUGUUCCGCAAU",
    "resultNumber": 14.8
  },
  {
    "sequenceEntry": "GGGUGAAGUGAGAAGGUUGGUGCUAGUUAAUUCAAAGGAUAUCAUUACUACGACAUGAGGAUCACCCAUGUAGCUGUACUGGAA",
    "resultNumber": 14.3
  },
  {
    "sequenceEntry": "GAAAUAUAGUCAGGAUAUCAGGACAUGAGGAUCACCCAUGUACUGAAUGGGCUGGUGAAAAGAGAUGAGAAGGGACACACUAGA",
    "resultNumber": 6.23
  },
  {
    "sequenceEntry": "UCGCUGUAAGGAUAUACUCCGUUACUGUGUUAUAACGGACCGUAGAAGGUACAUGAGGAUCACCCAUGUGAAGU",
    "resultNumber": 11.1
  },
  {
    "sequenceEntry": "UCGAUACCUCUAAUGAAGACAUGAGGAUCACCCAUGUUUAACAGAAGGUAGUCGGGAAGAUAGACUAAGGAUAUGUUGCAGGUG",
    "resultNumber": 9.63
  }
]

The reported apparent Kd of the sequence AUUACCCAAGGAUAUUGCAAUUGAGACAUGAGGAUCACCCAUGUACUUCCGGGUGUCAAUCAAGAAGGUGGAUGUU was 23.1

The reported apparent Kd of the sequence GGGAUGUUAGGAUAUGCUGGUUAAAAGAGAUUAAUACUCUAGCAGAAGGAACAUGAGGAUCACCCAUGUAGACA was 10.6

The reported apparent Kd of the sequence GUUUCGUCAGGAUAUGCUUAAGAAGUCUUCUCACCGGACUUGCAGAAGGGACAUGAGGAUCACCCAUGUGGUAA was 36.5

The reported apparent Kd of the sequence UUGAUAGCAGGAUAUACCAGUCAUGUCUCGCAAUUUACCCGACAUGAGGAUCACCCAUGUAGAAGGGCUGUUUA was 15.3

The reported apparent Kd of the sequence CUUCAGGCGGAGGAUAUCUUACAGUUAUCGUACAGAGAAGGCCGCACAUGAGGAUCACCCAUGUCAGGCGACUU was 29.8

The reported apparent Kd of the sequence UCGGAUACUGUAGGAUAUCGACCAAAUUUUCCUCGAGAAGGACAUCUAUAUAUAGAGAACAUGAGGAUCACCCAUGUGUUUUUG was 15

The reported apparent Kd of the sequence GACAAGACAGGAUAUACAUAUAUGUAGCACGAAGAGUUAAGACAUGAGGAUCACCCAUGUAGAAGGGUCAUAAA was 19.2

The reported apparent Kd of the sequence AGGAAACAUGAGGAUCACCCAUGUGAGGAUAUACAAAAGAGCGAAAGAAGAAAUUAAUGUAGAAGGCACGUCAA was 15.1

The reported apparent Kd of the sequence GCUCAGGAAGGAUAUACUGAAGCUAACAUGAGGAUCACCCAUGUCCUAGGUAAGUAUCUGGUAGAAGGUCCGCGUA was 24.9

The reported apparent Kd of the sequence CAGGGACAUGAGGAUCACCCAUGUAAGGAUAUGCCCAAAAGAGCGACUACUAAAGGAGGCAGAAGGUACGAACG was 28.6

The reported apparent Kd of the sequence UAAAGAUGUGCAGGAUAUUAGAAACGGCGGGAACUUAAAUUCAAACAUGAGGAUCACCCAUGUAAUAAGAAGGGCAAACUAAGA was 15.9

The reported apparent Kd of the sequence UAUUGGAUGACAGGAUAUCUACGAAGAAGUUGACAUGAGGAUCACCCAUGUAGGGUGUGGAGCAUAGAGAAGGGUCAGAACCUC was 702

The reported apparent Kd of the sequence UGGUAGUUGGAGAAGGGAUCGUCGGAACCCAGAUCAGGAUAUCCGACUACAUGAGGAUCACCCAUGUCCUAUCAGUACAAGUAC was 20.2

The reported apparent Kd of the sequence UACGGAGCUCAGAAGGGACACUGCGGAGAUAUGUCAGGAUAUGACUUCUUAUCGUGUGGUGACAUGAGGAUCACCCAUGUGCUU was 209

The reported apparent Kd of the sequence AUGUCGGCAGGAUAUACUGGAACUUGACCCGUGAACACGAUACAUGAGGAUCACCCAUGUAGAAGGGCCUAAAA was 11.5

The reported apparent Kd of the sequence UUCUGGCCGCAGAAGGAGGAUCUGGUUGAAAUCCUAGGAUAUGCAUCUAACCACUGGUCCACAUGAGGAUCACCCAUGUCAGAC was 16.3

The reported apparent Kd of the sequence CCAGCUCUAUAGGAUAUUCUUGAUGAAGACACGGAAGAAGGAUAGACAUGAGGAUCACCCAUGUCCUUACAUGU was 19.4

The reported apparent Kd of the sequence GGAAGUCAAGGAUAUACAUGAGGAUCACCCAUGUCAGGUGCCAAUUAUGUUCUAUAGUGUAGAAGGUGACAAUG was 112

The reported apparent Kd of the sequence CAAAUGAGAGGAUAUACAAUUAGAUUUCAAAGUCACAUCAGACAUGAGGAUCACCCAUGUAGAAGGCUCGGAUA was 23.7

The reported apparent Kd of the sequence CGCGCUGAAGGAUAUGCAUUGGACUACAUGAGGAUCACCCAUGUCCCGUCUUGUGGACCCGCAGAAGGUCACUACC was 9.25

###

- Tested on: MS2 coat protein
- testDetails: apparent Kd, MS2 coat protein; higher = weaker binding; RNA-MaP array
- protocolConditions: designed as: OFF switch for theophylline; no ligand
readoutLabel: apparent Kd (nM)
Form entry: value (nM) — number only.

Some entries whose results are on file:
[
  {
    "sequenceEntry": "CGACACCAGGCAAUCCAUCACCCGGCUGAUACCAGCUCUUUUGGAAGCCCUUGGCAGCAGAGAACAUGAGGAUCACCCAUGUCAG",
    "quantityUnit": "nM",
    "apparent Kd": 14.6
  },
  {
    "sequenceEntry": "GCACGAGUAAGACCUGACUUCAACAAUGAUACCAGACUAGUAAACGUCCCUUGGCAGCAUCAGACAUGAGGAUCACCCAUGUGGC",
    "quantityUnit": "nM",
    "apparent Kd": 27
  },
  {
    "sequenceEntry": "AGAAGUCCAGACUACACGUGGAAAAGCGAUACCAGACUCAUAGGUGUCCCUUGGCAGCGCGUAACAUGAGGAUCACCCAUGUGAU",
    "quantityUnit": "nM",
    "apparent Kd": 142
  }
]

Continue with the sequence presented below.
The reported apparent Kd of the sequence CGAUACAAAUAAAGCGUUCGUCCGCCAGAUACCAGAUUCAUUUCCAUCCCUUGGCAGCUGUCGACAUGAGGAUCACCCAUGUUUG was 18.3

Entry source: the EternaBench riboswitch data
